Provide the reported log10 MIC of each item.
system: Staphylococcus aureus str. Newman; test: Minimal inhibitory concentration (microdilution) against S. aureus; assay type: cell-based; conditions: Table ST3, value in parentheses
Hey, these are logged values: log10 of MIC, µM being the unit before logging.

Example compounds with recorded log10 MIC:
Oc1ccc(-c2n[nH]c(C(F)(F)F)c2-c2ccc(Cl)cc2)c(O)c1 [DPP-5] ... 0.94
Oc1ccccc1-c1[nH]nc(C(F)(F)F)c1-c1ccc(Cl)cc1 [DPP-22] ... 0.66
Cc1n[nH]c(-c2ccc(O)cc2O)c1-c1ccc(Cl)cc1 [DPP-9] ... 1.92
CCOc1ccc(-c2[nH]nc(C(F)(F)F)c2-c2ccccc2)c(O)c1 [DPP-3] ... 1.25

Batch: log10 MIC for all items listed.
1. COc1ccc(-c2[nH]nc(C(F)(F)F)c2-c2ccc(Cl)cc2)c(O)c1 [DPP-6]
2. COc1ccc(-c2c(C(F)(F)F)n[nH]c2-c2ccc(O)cc2O)cc1OC [DPP-18]
3. COc1ccc(-c2[nH]nc(C(F)(F)F)c2-c2ccc(OC)c(OC)c2)c(O)c1 [DPP-19]
4. CCOc1ccc(-c2[nH]nc(C(F)(F)F)c2-c2ccc(OC)cc2)c(O)c1 [DPP-14]

A:
1: 0.93; 2: 2.12; 3: 1.80; 4: 1.22

Q: Please look at this compound and report its log10 MIC: Oc1cc(OCc2ccccc2)ccc1-c1[nH]nc(C(F)(F)F)c1-c1ccccc1 [DPP-4]
A: 0.58

---

Provide the reported MIC of each item.
system: Escherichia coli D21f2 with a truncated LPS barrier; experiment: MIC (microdilution) against E. coli D21f2; assay type: cell-based; settings: read-out: MIC E coli D21f2
Numbers only, in µg/mL.

Oc1ccc(-c2onc(C(F)(F)F)c2-c2ccc(Cl)cc2)c(O)c1 ... 25
Cc1n[nH]c(-c2ccc(O)cc2O)c1-c1ccc(Cl)cc1 ... 50
COc1ccc(-c2[nH]nc(C(F)(F)F)c2-c2ccc(Cl)cc2)c(O)c1 ... 25

Batch: MIC for all items listed.
1. COc1ccc(-c2[nH]nc(C(F)(F)F)c2-c2ccccc2)c(O)c1
2. Oc1ccc(-c2n[nH]c(C(F)(F)F)c2-c2ccc(Cl)cc2)c(O)c1
3. Oc1ccccc1-c1[nH]nc(C(F)(F)F)c1-c1ccc(Cl)cc1
4. CCOc1ccc(-c2[nH]nc(C(F)(F)F)c2-c2ccc(Cl)cc2)c(O)c1

A:
50
50
25
25

Batch: MIC for all items listed.
1. Oc1cc(OCc2ccccc2)ccc1-c1[nH]nc(C(F)(F)F)c1-c1ccc(Cl)cc1
2. COc1ccc(-c2[nH]nc(C)c2-c2ccc(Cl)cc2)c(O)c1

A:
1: 25; 2: 250

---

tested on: Staphylococcus aureus str. Newman; assay: Minimal inhibitory concentration (microdilution) against S. aureus; assay type: cell-based; conditions: Table ST3, value in parentheses
Provide the reported log10 MIC of each item.
Hey, these are logged values: log10 of MIC, µM being the unit before logging.

CCOc1ccc(-c2[nH]nc(C(F)(F)F)c2-c2ccc(OC)c(OC)c2)c(O)c1 [DPP-20] ... 1.48

Batch: log10 MIC for all items listed.
1. Oc1cc(OCc2ccccc2)ccc1-c1[nH]nc(C(F)(F)F)c1-c1ccc(Cl)cc1 [DPP-8]
2. COc1ccc(-c2[nH]nc(C(F)(F)F)c2-c2ccccc2OC)c(O)c1 [DPP-17]
3. COc1ccc(-c2[nH]nc(C(F)(F)F)c2-c2ccccc2)c(O)c1 [DPP-2]
4. COc1ccc(-c2c(C(F)(F)F)n[nH]c2-c2ccc(OCc3ccccc3)cc2O)cc1 [DPP-15]
5. Oc1ccc(-c2onc(C(F)(F)F)c2-c2ccc(Cl)cc2)c(O)c1 [DPP-11]
6. FC(F)(F)c1n[nH]c(-c2ccccc2)c1-c1ccc(Cl)cc1 [DPP-21]
7. Oc1ccc(-c2[nH]nc(C(F)(F)F)c2-c2ccccc2)c(O)c1 [DPP-1]

A:
1: 0.55; 2: 1.84; 3: 1.57; 4: 0.85; 5: 0.94; 6: 0.68; 7: 1.29

Q: Please look at this compound and report its log10 MIC: COc1ccc(-c2c(C(F)(F)F)n[nH]c2-c2ccc(O)cc2O)cc1 [DPP-12]
A: 1.55

---

target: E. coli EnvZ (Escherichia coli, UniProt P0AEJ4); construct: Cytoplasmic domains from S. aureus PhoR and E. coli EnvZ; His6; made in house; host or cells: E. coli RIL; assay: HK autophosphorylation inhibition, EnvZ; assay type: biochemical; details: bound from first screening at 2 mM
Sequence (P0AEJ4 180-450): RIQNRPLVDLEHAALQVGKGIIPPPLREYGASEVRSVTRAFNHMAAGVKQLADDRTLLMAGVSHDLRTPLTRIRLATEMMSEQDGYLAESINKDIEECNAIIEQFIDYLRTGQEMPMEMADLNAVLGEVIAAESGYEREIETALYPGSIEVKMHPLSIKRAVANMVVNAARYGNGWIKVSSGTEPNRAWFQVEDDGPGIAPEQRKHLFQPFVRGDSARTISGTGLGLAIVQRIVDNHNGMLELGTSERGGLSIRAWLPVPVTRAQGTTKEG
readoutLabel: IC50

COc1ccc(-c2[nH]nc(C(F)(F)F)c2-c2ccccc2)c(O)c1 [DPP-2] ... < 2000 µM

Now consider a different molecule.
Q: Please look at this molecule and report its IC50: CCOc1ccc(-c2[nH]nc(C(F)(F)F)c2-c2ccc(Cl)cc2)c(O)c1 [DPP-7]
A: < 2000 µM

---

Provide the reported Selectivity Index of each item.
tested on: HEK293 cells; experiment: in vitro; assay type: cell-based; settings: LC50/MIC (HEK293 / S. aureus)
Answers are plain numbers.

COc1ccc(-c2c(C(F)(F)F)n[nH]c2-c2ccc(OCc3ccccc3)cc2O)cc1 ... 3.10

Batch: Selectivity Index for all items listed.
1. CCOc1ccc(-c2[nH]nc(C(F)(F)F)c2-c2ccc(OC)c(OC)c2)c(O)c1
2. COc1ccccc1-c1c(C(F)(F)F)n[nH]c1-c1ccc(O)cc1O
3. Oc1ccccc1-c1[nH]nc(C(F)(F)F)c1-c1ccc(Cl)cc1
4. Oc1cc(OCc2ccccc2)ccc1-c1[nH]nc(C(F)(F)F)c1-c1ccccc1
5. COc1ccc(-c2[nH]nc(C)c2-c2ccc(Cl)cc2)c(O)c1

A:
[1.32, 0.65, 1.85, 4.65, 0.93]

Batch: Selectivity Index for all items listed.
1. COc1ccc(-c2c(C(F)(F)F)n[nH]c2-c2ccc(O)cc2O)cc1
2. COc1ccc(-c2c(C(F)(F)F)n[nH]c2-c2ccc(O)cc2O)cc1OC

A:
1: 2.54; 2: 0.45

Q: Please look at this compound and report its Selectivity Index: COc1ccc(-c2[nH]nc(C(F)(F)F)c2-c2ccc(OC)c(OC)c2)c(O)c1
A: 0.55

---

Provide the reported MIC of each item.
Tested on: Enterococcus faecium vanA (strain E1654)
Assay: MIC (microdilution) against E. faecium
Assay type: cell-based
Details: Enterococcus faecium, read-out: MIC E. faecium
Procedure: Staphylococcus aureus str. […] The minimal inhibitory concentration was determined using the microdilution method following the guidelines of the European Committee on Antimicrobial Susceptibility Testing ([50]). […] MIC was recorded as the lowest concentration where no growth was detected as measured by optical density at 600 nm (OD600) using Spectramax M5 (Molecular Devices LLC, San Jose, CA, USA). […]
Numbers only, in µg/mL.

CCOc1ccc(-c2[nH]nc(C(F)(F)F)c2-c2ccc(OC)cc2)c(O)c1 [DPP-14] ... 12.5

Batch: MIC for all items listed.
1. COc1ccc(-c2c(C(F)(F)F)n[nH]c2-c2ccc(O)cc2O)cc1 [DPP-12]
2. Cc1n[nH]c(-c2ccc(O)cc2O)c1-c1ccc(Cl)cc1 [DPP-9]

A:
1. 50
2. 25

---

system: Pasteurella haemolytica ATCC 29701; assay: MIC (microdilution) against P. haemolytica; type: cell-based; details: Mannheimia haemolytica, ATCC29701, read-out: MIC P. haemolytica, Table 1
readoutLabel: MIC (µg/mL)
One number for each entry, in µg/mL.

CCOc1ccc(-c2[nH]nc(C(F)(F)F)c2-c2ccc(Cl)cc2)c(O)c1 ... 25
COc1ccc(-c2[nH]nc(C(F)(F)F)c2-c2ccc(Cl)cc2)c(O)c1 ... 12.5
COc1ccc(-c2c(C(F)(F)F)n[nH]c2-c2ccc(O)cc2O)cc1 ... 50

Now consider a different molecule.
Q: Please look at this molecule and report its MIC: COc1ccc(-c2[nH]nc(C(F)(F)F)c2-c2ccccc2)c(O)c1
A: 50

---

test system: Escherichia coli ATCC 25922; assay: MIC (microdilution) against E. coli; format: cell-based; details: Table ST1
Provide the reported MIC E. coli of each item.

Example compounds with recorded MIC E. coli:
COc1ccc(-c2c(C(F)(F)F)n[nH]c2-c2ccc(OC)cc2O)cc1 ... >250 µg/mL
COc1ccc(-c2[nH]nc(C(F)(F)F)c2-c2ccccc2)c(O)c1 ... >250 µg/mL
COc1ccc(-c2[nH]nc(C(F)(F)F)c2-c2ccc(Cl)cc2)c(O)c1 ... >250 µg/mL
Oc1ccc(-c2n[nH]c(C(F)(F)F)c2-c2ccc(Cl)cc2)c(O)c1 ... 50 µg/mL
CCOc1ccc(-c2[nH]nc(C(F)(F)F)c2-c2ccc(Cl)cc2)c(O)c1 ... >250 µg/mL

Q: Please look at this compound and report its MIC E. coli: COc1ccc(-c2c(C(F)(F)F)n[nH]c2-c2ccc(O)cc2O)cc1
A: >250 µg/mL

Provenance of the data: paper PMC11302729
